assay notes: self-splicing fitness, log relative to wild type (ln ratio); higher = more splicing; Tetrahymena group I intron in knt gene, E. coli kanamycin selection, DiMSum; sequences stand for … in CUCUCU…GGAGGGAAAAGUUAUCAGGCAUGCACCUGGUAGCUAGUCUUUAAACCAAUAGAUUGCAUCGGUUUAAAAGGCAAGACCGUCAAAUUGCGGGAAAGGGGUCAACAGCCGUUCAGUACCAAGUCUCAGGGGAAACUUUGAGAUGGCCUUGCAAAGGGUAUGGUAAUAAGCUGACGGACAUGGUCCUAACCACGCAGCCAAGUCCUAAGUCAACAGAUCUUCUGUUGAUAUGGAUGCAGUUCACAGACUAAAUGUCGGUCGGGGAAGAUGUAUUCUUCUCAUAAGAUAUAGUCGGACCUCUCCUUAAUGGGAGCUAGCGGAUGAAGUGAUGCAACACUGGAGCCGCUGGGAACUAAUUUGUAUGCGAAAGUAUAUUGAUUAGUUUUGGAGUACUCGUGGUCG;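 also: selection with 25 µg/mL kanamycin versus none on LB agar overnight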
condition info: 37 °C
Please respond with reported self-splicing fitness (ln) for every item in the list.
Please reply with the value in numeric form only.

Supply self-splicing fitness (ln) value. Item: CCUGAGCAAUAUUACGGACU -3.3

Look up self-splicing fitness (ln) of AUACAGCAAUAUUACGCGUA and report it. -0.809

Please supply the value of reported self-splicing fitness (ln) for the item AGGAAGCAAUAUUACGUUGA -1.63

Give the value of self-splicing fitness (ln) reported for the following: AUUAAGCAAUAUUACGCAUU -0.664

Provide measured self-splicing fitness (ln) value, entry: GGGAAGCAAUAUUACGCAUG -0.366

Indicate its recorded self-splicing fitness (ln); the sequence in question is CACUAGCAAUAUUACGCUAG -2.41

Give the reported self-splicing fitness (ln) for this sequence. UAUGAGCAAUAUUACGGCUU -1.62

Give self-splicing fitness (ln) for the following sequence: CUGAAGCAAUAUUACGAUCU -3.2

Write down self-splicing fitness (ln) measured for item AUGAAGCAAUAUUACGCACG 0.541

Give the value of self-splicing fitness (ln) reported for the following: UGGGAGCAAUAUUACGAUCA -0.124

Fill in reported self-splicing fitness (ln) for this entry: AUUCAGCAAUAUUACGCAGG -0.594

Read the entry UUUUAGCAAUAUUACGACUU and write its reported self-splicing fitness (ln). -1.14

Given the sequence ACAAAGCAAUAUUACGCCAG , write its reported self-splicing fitness (ln). -1.11

Return self-splicing fitness (ln) for the following sequence: CCGUAGCAAUAUUACGGUGA -2.45

Please look at this sequence and report its self-splicing fitness (ln): GUAAAGCAAUAUUACGCUAG -0.533

Let me know recorded self-splicing fitness (ln) for UGUGAGCAAUAUUACGAUAG , thanks. -0.644

Give recorded self-splicing fitness (ln). GAGCAGCAAUAUUACGAGCG -1.11

Using the record for UGCCAGCAAUAUUACGAUGU , state its measured self-splicing fitness (ln). -1.34

Provide only the value of recorded self-splicing fitness (ln) for GCCCAGCAAUAUUACGCGCC -0.613

Please give the documented self-splicing fitness (ln) of GUUUAGCAAUAUUACGCGGG -1.89

// Input: GUGUAGCAAUAUUACGUUAA . Output its self-splicing fitness (ln) only. -1.8

Determine from records and report self-splicing fitness (ln) for GUGAAGCAAUAUUACGCGCA 0.509

Please indicate self-splicing fitness (ln) recorded for UUGGAGCAAUAUUACGAGAA -1.78

Look up and state reported self-splicing fitness (ln) for UGCUAGCAAUAUUACGACAC -2.11

Return self-splicing fitness (ln) (reported value) for this sequence: AAGAAGCAAUAUUACGUUUG -2.26

Give the measured self-splicing fitness (ln) for AACUAGCAAUAUUACGCCAG -0.848

Give me measured self-splicing fitness (ln), please, for this sequence: AUGUAGCAAUAUUACGGAUU -0.598

Name the recorded self-splicing fitness (ln) of the item GUGUAGCAAUAUUACGAGUC in your answer. -1.03

Give self-splicing fitness (ln) for the following sequence: CUCGAGCAAUAUUACGUUAC -2.22

Let me know recorded self-splicing fitness (ln) for UUGAAGCAAUAUUACGACUG , thanks. 0.183

Tell me self-splicing fitness (ln) reported for GUCAAGCAAUAUUACGGUUU -1.44

Please list self-splicing fitness (ln) recorded for the sequence AAAAAGCAAUAUUACGCAAU -1.08

Look up and state reported self-splicing fitness (ln) for CACUAGCAAUAUUACGCAUC -3.53

Give the reported self-splicing fitness (ln) for this sequence. UUUUAGCAAUAUUACGUAUU -1.04

Tell me its self-splicing fitness (ln) given GCCAAGCAAUAUUACGCGCA as the entry. 0.097

State its self-splicing fitness (ln): UGUUAGCAAUAUUACGACUU 0.12

Recall and state the measured self-splicing fitness (ln) for AGUUAGCAAUAUUACGUUAA . -1.48

Identify self-splicing fitness (ln) associated with the sequence CGAAAGCAAUAUUACGCAAU -3.64

Determine its reported self-splicing fitness (ln): ACCCAGCAAUAUUACGAUGC 0.13

Fill in reported self-splicing fitness (ln) for this entry: UACUAGCAAUAUUACGCUCC -1.21

Return self-splicing fitness (ln) (reported value) for this sequence: GUACAGCAAUAUUACGGGGC -2.77

Quote self-splicing fitness (ln) reported for AAUUAGCAAUAUUACGUGGC please. -1.96

Identify measured self-splicing fitness (ln) associated with GAAAAGCAAUAUUACGGCGG -1.59

Answer with the recorded self-splicing fitness (ln) for the sequence listed here: CUAGAGCAAUAUUACGUGUC -2.88

Output measured self-splicing fitness (ln) for this item: AUGGAGCAAUAUUACGCUCA -1.17

Give self-splicing fitness (ln) for CUUAAGCAAUAUUACGAUCA -3.2

Look up self-splicing fitness (ln) of AGGCAGCAAUAUUACGAACG and report it. 0.48

Identify measured self-splicing fitness (ln) associated with UCUUAGCAAUAUUACGGCAA -1.57

Supply measured self-splicing fitness (ln) of ACGAAGCAAUAUUACGAUUU in your reply. -0.317

Specify reported self-splicing fitness (ln) for the sequence shown: AGCCAGCAAUAUUACGCUCA -1.64

Give recorded self-splicing fitness (ln). UUCGAGCAAUAUUACGGCGC -2.36

Recall and state the measured self-splicing fitness (ln) for CCAGAGCAAUAUUACGCGGA . -2.49

Return the recorded self-splicing fitness (ln) value; entry: AUCGAGCAAUAUUACGGGCG -2.37

Give the reported self-splicing fitness (ln) for this sequence. UAGUAGCAAUAUUACGAAUA -0.977

Provide self-splicing fitness (ln) value for the following sequence: UAAAAGCAAUAUUACGUUGG -1.42

Assign self-splicing fitness (ln) to the following record: AGGGAGCAAUAUUACGGGCA -1.46

Entry GCAAAGCAAUAUUACGGGUG needs its self-splicing fitness (ln) filled in; supply it. -1.23

In one line, give reported self-splicing fitness (ln) of the entry UCACAGCAAUAUUACGAUGA . -0.136

Quote self-splicing fitness (ln) reported for CCUCAGCAAUAUUACGACCU please. -2.59

Respond only with self-splicing fitness (ln) recorded for UACAAGCAAUAUUACGAUGU -1.96

Give self-splicing fitness (ln) for GUUCAGCAAUAUUACGGAAA 0.58

Dear colleague, please send me the reported self-splicing fitness (ln) for GCAAAGCAAUAUUACGGCGA when you can. -0.115

Fill in reported self-splicing fitness (ln) for this entry: AUAUAGCAAUAUUACGUGCG -0.942
